The measurements presented in this section are drawn from ChEMBL document CHEMBL1129609.

# Tested on: Vesicular stomatitis virus
# Test Summary: Antiviral activity against vesicular stomatitis virus infected HEF cell lines.
# Format: functional
Assay Metric: MIC50

[[record]]
compound = "CCN1CCCCC12C1CC3CC(C1)CC2C3 (centres undefined)"
value = "> 200 µg/mL"

[[record]]
compound = "CN1CCCC1C12CC3CC(CC(C3)C1)C2 (centres undefined)"
value = "> 100 µg/mL"

[[record]]
compound = "CC(C)(C)C1CCCN1CC12CC3CC(CC(C3)C1)C2 (centres undefined)"
value = "> 100 µg/mL"

[[record]]
compound = "CCN1CCCC1C12CC3CC(CC(C3)C1)C2 (centres undefined)"
value = "> 100 µg/mL"

[[record]]
compound = "CN1CCCCC12C1CC3CC(C1)CC2C3 (centres undefined)"
value = "> 200 µg/mL"

[[record]]
compound = "CCCCN1CCCC1C12CC3CC(CC(C3)C1)C2 (centres undefined)"
value = "> 40 µg/mL"

[[record]]
compound = "C1CNC(C23CC4CC(CC(C4)C2)C3)C1 (centres undefined)"
value = "> 40 µg/mL"

[[record]]
compound = "C1CCC2(CC1)CCCN2CC12CC3CC(CC(C3)C1)C2"
value = "> 40 µg/mL"

[[record]]
compound = "C1CCC2(C1)CCCN2CC12CC3CC(CC(C3)C1)C2"
value = "> 100 µg/mL"

[[record]]
compound = "Nc1nc2c(ncn2COC(CO)CO)c(=O)[nH]1"
value = "> 100 µg/mL"

[[record]]
compound = "CNC1(C23CC4CC(CC(C4)C2)C3)CCCC1"
value = "> 10 µg/mL"

[[record]]
compound = "NC1(C23CC4CC(CC(C4)C2)C3)CCCC1"
value = "> 10 µg/mL"

[[record]]
compound = "CC1(C)CCCN1CC12CC3CC(CC(C3)C1)C2"
value = "> 40 µg/mL"

[[record]]
compound = "NC(=O)c1ncn([C@@H]2O[C@H](CO)[C@@H](O)[C@H]2O)n1"
value = "20 µg/mL"

[[record]]
compound = "CN(C)C1(C23CC4CC(CC(C4)C2)C3)CCCC1"
value = "> 40 µg/mL"

[[record]]
compound = "C1COCC2(N1)C1CC3CC(C1)CC2C3 (centres undefined)"
value = "> 200 µg/mL"

[[record]]
compound = "CCN1CCOCC12C1CC3CC(C1)CC2C3 (centres undefined)"
value = "> 400 µg/mL"

[[record]]
compound = "C1CCC2(NC1)C1CC3CC(C1)CC2C3 (centres undefined)"
value = "> 200 µg/mL"

[[record]]
compound = "CN1CCOCC12C1CC3CC(C1)CC2C3 (centres undefined)"
value = "> 400 µg/mL"


###

# Test Summary: Antiviral activity against influenza A,H3N2 virus infected MDCK cell lines.
# Assay type: functional
Assay Metric: MIC50

[[record]]
compound = "C1CCC2(CC1)CCCN2CC12CC3CC(CC(C3)C1)C2"
value = "> 100 µg/mL"

[[record]]
compound = "CC(C)(C)C1CCCN1CC12CC3CC(CC(C3)C1)C2 (stereo not given)"
value = "> 100 µg/mL"

[[record]]
compound = "CNC1(C23CC4CC(CC(C4)C2)C3)CCCC1"
value = "> 60 µg/mL"

[[record]]
compound = "C1CCC2(NC1)C1CC3CC(C1)CC2C3 (stereo not given)"
value = "43 µg/mL"

[[record]]
compound = "C1COCC2(N1)C1CC3CC(C1)CC2C3 (stereo not given)"
value = "13 µg/mL"

